Experiment: T. gondii ME49Luc in HeLa cells, luciferase assay, 72 h, no IFN-y (AID 1259421)
Settings: hits give low values, concentration not given here
Hit rate of the full screen: of about 6,400 compounds, about 610 (9.5%) were called active. Shown is part of a subset that was picked to be rich in actives.
Consider the following compounds and their measured activity change, negative = inhibition readings.
MEASURED_PROPERTY: activity change, negative = inhibition (%)

- COMPOUND: "CN1CCN(C(=O)C2C3CCC(O3)C2C(=O)O)CC1 (stereo not given)"
  MEASURED_PROPERTY: "activity change, negative = inhibition"
  MEASURED_NUMBER: 3.27
- COMPOUND: "NS(=O)(=O)OC[C@@H]1C[C@@H](n2ccc3c(N[C@H]4CCc5ccccc54)ncnc32)C[C@@H]1O"
  MEASURED_PROPERTY: "activity change, negative = inhibition"
  MEASURED_NUMBER: -17.2
- COMPOUND: "COc1ccc2c(c1)OCC(Cc1ccc(OC)c(O)c1)C2=O (stereo not given)"
  MEASURED_PROPERTY: "activity change, negative = inhibition"
  MEASURED_NUMBER: -61
- COMPOUND: "O=C1NC(=O)C2(CCOc3ccc(F)cc32)N1 (stereo not given)"
  MEASURED_PROPERTY: "activity change, negative = inhibition"
  MEASURED_NUMBER: 17.5
- COMPOUND: "CC(C)Cc1sc(N)nc1-c1ccc(P(=O)(O)O)o1"
  MEASURED_PROPERTY: "activity change, negative = inhibition"
  MEASURED_NUMBER: 7.23
- COMPOUND: "CCn1c(=O)c(-c2ccn[nH]2)cc2c(C)nc(N)nc21"
  MEASURED_PROPERTY: "activity change, negative = inhibition"
  MEASURED_NUMBER: -57.4
- COMPOUND: "N[C@@H](CC(=O)Nc1ccc(Oc2cc(F)c(F)cc2Br)cc1)C(=O)O"
  MEASURED_PROPERTY: "activity change, negative = inhibition"
  MEASURED_NUMBER: 7.4
- COMPOUND: "CCCCCCCC/C=C/CCCCCCCC(=O)NC(CO)Cc1ccc(O)cc1 (stereo not given)"
  MEASURED_PROPERTY: "activity change, negative = inhibition"
  MEASURED_NUMBER: 6.19
- COMPOUND: "O=C(O)CN1CCN(CC(=O)O)CCN([C@H](CO)C(O)CO)CCN(CC(=O)O)CC1.[Gd] (stereo not given in full)"
  MEASURED_PROPERTY: "activity change, negative = inhibition"
  MEASURED_NUMBER: 8
- COMPOUND: "C=CC(=O)Nc1cc(Nc2nccc(-c3cn(C)c4ccccc34)n2)c(OC)cc1N(C)CCN(C)C"
  MEASURED_PROPERTY: "activity change, negative = inhibition"
  MEASURED_NUMBER: -63.1

---

Experiment: T. gondii ME49Luc in HeLa cells, luciferase assay, 72 h, no IFN-y (AID 1259421)
Details: hits give low values, concentration not given here
The whole screen tested about 6,400 compounds, of which about 610 (9.5%) were called active. This is one part of a sample in which actives are shown more often than they occur.
Consider the following compounds and their measured activity change, negative = inhibition readings.

- COMPOUND: "OC[C@H]1O[C@@H](n2cnc3c(NC4CCCC4)nc(Cl)nc32)[C@H](O)[C@@H]1O"
  activity change, negative = inhibition / %: 3.31
- COMPOUND: "c1cnc(SCc2cccnc2)nc1"
  activity change, negative = inhibition / %: 15.1
- COMPOUND: "O=C(O)[C@H]1CN(C/C=C/P(=O)(O)O)CCN1"
  activity change, negative = inhibition / %: -6.53
- COMPOUND: "Nc1nc(Cl)nc2c1ncn2[C@H]1C[C@H](O)[C@@H](CO)O1"
  activity change, negative = inhibition / %: -37.2
- COMPOUND: "O=C(N[C@@H]1CC[C@@H](c2cccc(F)c2F)CN(CC(F)(F)F)C1=O)N1CCC(n2c(=O)[nH]c3ncccc32)CC1"
  activity change, negative = inhibition / %: 5.74
- COMPOUND: "Nc1nc(F)nc2c1ncn2[C@@H]1O[C@H](CO)[C@@H](O)[C@@H]1O"
  activity change, negative = inhibition / %: -26.8
- COMPOUND: "OCC1OC(n2cnc3c(NC4CCCC4)nc(Cl)nc32)C(O)C1O (stereo not given)"
  activity change, negative = inhibition / %: -5.92
- COMPOUND: "O=C(O)c1ccc(-n2nc(-c3ccccc3O)nc2-c2ccccc2O)cc1"
  activity change, negative = inhibition / %: -30
- COMPOUND: "COc1cc(N2CCC(N3CCN(C)CC3)CC2)ccc1Nc1ncc(Cl)c(Nc2ccccc2S(=O)(=O)C(C)C)n1"
  activity change, negative = inhibition / %: -84.8
- COMPOUND: "Nc1nc(Cl)nc2c1ncn2C1OC(CO)C(O)C1F (stereo not given)"
  activity change, negative = inhibition / %: -87.6

---

Consider the following compounds and their measured activity change, negative = inhibition readings.
Test: T. gondii ME49Luc in HeLa cells, luciferase assay, 72 h, no IFN-y (AID 1259421)
Settings: hits give low values, concentration not given here
In all, about 6,400 compounds went through this assay and about 610 (9.5%) were called active. For the sample, actives were picked, then their nearest neighbours and some compounds at random.
MEASURED_PROPERTY: activity change, negative = inhibition (%)

- COMPOUND: "Cc1cc(S(=O)(=O)O)c2c(C)ccc(C(C)C)cc1-2"
  QUANTITY_UNIT: "%"
  MEASURED_NUMBER: 0.707
- COMPOUND: "CC(=O)OC[C@H]1O[C@@H](n2ccc(=O)[nH]c2=O)[C@H](OC(C)=O)[C@@H]1OC(C)=O"
  QUANTITY_UNIT: "%"
  MEASURED_NUMBER: 8.3
- COMPOUND: "COC(=O)C[C@H]1C(C)(C)C(=O)[C@@H]2CC3=C4CC(=O)O[C@@H](c5ccoc5)[C@]4(C)CCC3[C@@]1(C)C2=O (stereo not given in full)"
  QUANTITY_UNIT: "%"
  MEASURED_NUMBER: -15.9
- COMPOUND: "CC[C@H](Nc1ncnc2nc[nH]c12)c1nc2cccc(F)c2c(=O)n1-c1ccccc1"
  QUANTITY_UNIT: "%"
  MEASURED_NUMBER: 0.609
- COMPOUND: "O=C(O)CCNC(=O)c1ccc(N=Nc2ccc(O)c(C(=O)O)c2)cc1"
  QUANTITY_UNIT: "%"
  MEASURED_NUMBER: 22.4
- COMPOUND: "COC(F)(F)C(Cl)Cl"
  QUANTITY_UNIT: "%"
  MEASURED_NUMBER: 19.6
- COMPOUND: "Cc1ccc(/C=C2/CNC/C(=C\\c3ccc(C)cc3)C2=O)cc1"
  QUANTITY_UNIT: "%"
  MEASURED_NUMBER: -85.7
- COMPOUND: "CC(C)CC(NC(=O)N1CCCCCC1)C(=O)NC(Cc1cn(C)c2ccccc12)C(=O)NC(Cc1ccccn1)C(=O)O (stereo not given)"
  QUANTITY_UNIT: "%"
  MEASURED_NUMBER: 5.64
- COMPOUND: "Cc1ccc(/C=C2\\CNC/C(=C\\c3ccc(C)cc3)C2=O)cc1"
  QUANTITY_UNIT: "%"
  MEASURED_NUMBER: -83.2
- COMPOUND: "C=C1[C@H]2CC[C@@]3(C)[C@H](c4ccoc4)OC(=O)C[C@]13O[C@H]1C[C@H](O)C(C)(C)[C@H](CC(=O)OC)[C@]12C"
  QUANTITY_UNIT: "%"
  MEASURED_NUMBER: -4.68
- COMPOUND: "CC1(C)CCC(CN2CCN(c3ccc(C(=O)NS(=O)(=O)c4ccc(NCC5CCOCC5)c([N+](=O)[O-])c4)c(Oc4cnc5[nH]ccc5c4)c3)CC2)=C(c2ccc(Cl)cc2)C1"
  QUANTITY_UNIT: "%"
  MEASURED_NUMBER: -89.7
- COMPOUND: "COc1ccc(-c2cc(=O)c3c(O)cc(O)cc3o2)cc1"
  QUANTITY_UNIT: "%"
  MEASURED_NUMBER: 127
- COMPOUND: "CC(C)(C)C(=O)OCOC(=O)[C@@H]1N2C(=O)[C@@H](N=CN3CCCCCC3)[C@H]2SC1(C)C"
  QUANTITY_UNIT: "%"
  MEASURED_NUMBER: 2.97
- COMPOUND: "CCCCCCCCc1ccc(-c2ccc(C(=O)O)cc2)cc1"
  QUANTITY_UNIT: "%"
  MEASURED_NUMBER: 18
- COMPOUND: "Nc1ncnc2c1c(-c1cnc3[nH]ccc3c1)nn2C1CCCC1"
  QUANTITY_UNIT: "%"
  MEASURED_NUMBER: -82.4
- COMPOUND: "COc1cc(/C=C(/C#N)C(N)=O)cc(CSc2nc3ccccc3s2)c1O"
  QUANTITY_UNIT: "%"
  MEASURED_NUMBER: 0.785
- COMPOUND: "CCCCCCCCCCCCCCCC(=O)OC(C)C"
  QUANTITY_UNIT: "%"
  MEASURED_NUMBER: 3.86
- COMPOUND: "CCCCC/C=C\\C/C=C\\C/C=C\\CCCCCCC(=O)O"
  QUANTITY_UNIT: "%"
  MEASURED_NUMBER: 4.57
- COMPOUND: "COc1ccc([C@H]2COc3c(ccc(O)c3OC)C2)c(OC)c1O"
  QUANTITY_UNIT: "%"
  MEASURED_NUMBER: 8.53
- COMPOUND: "N#CC[C@@H](C1CCCC1)n1cc(-c2ncnc3[nH]ccc23)cn1"
  QUANTITY_UNIT: "%"
  MEASURED_NUMBER: 1.99
